- TEST_DETAILS: Plasma pharmacokinetics of pemigatinib (LC–MS/MS, non-compartmental), phase I
- Assay type: in vivo, human (Chinese patients)
- CONDITIONS_USED: human, plasma, po, 13.5 mg, 13.5 mg oral QD, C1D14 (steady state), N=12; read-out: Vz/F, geometric mean (converted)

MOLECULE | SCALE_UNIT | Vd/F
CCN1C(=O)N(c2c(F)c(OC)cc(OC)c2F)Cc2cnc3[nH]c(CN4CCOCC4)cc3c21 [pemigatinib] | L | 170

----------
- TEST_DETAILS: Plasma pharmacokinetics of pemigatinib (LC–MS/MS, non-compartmental), phase I
- Assay type: in vivo, human (Chinese patients)
- CONDITIONS_USED: human, plasma, po, 13.5 mg, 13.5 mg oral QD, C1D1, N=12; read-out: Cmax, mean ± STD

MOLECULAR_STRING | Cmax / nM
CCN1C(=O)N(c2c(F)c(OC)cc(OC)c2F)Cc2cnc3[nH]c(CN4CCOCC4)cc3c21 | 190

----------
- TEST_DETAILS: Plasma pharmacokinetics of pemigatinib (LC–MS/MS, non-compartmental), phase I
- Assay type: in vivo, human (Chinese patients)
- CONDITIONS_USED: human, plasma, po, 13.5 mg, 13.5 mg oral QD, C1D1, N=12; read-out: AUC0-24, geometric mean (converted)
VALUE_KIND: AUC(0-t) (µM·h)

MOLECULAR_STRING | SCALE_UNIT | READING
CCN1C(=O)N(c2c(F)c(OC)cc(OC)c2F)Cc2cnc3[nH]c(CN4CCOCC4)cc3c21 | µM·h | 2.13
